assay: acute toxicity by intraperitoneal administration; conditions: mouse, in vivo, ip; mice, i.p., estimated lethal dose (method of Miller); read-out: Acute toxicity LD 50
This section presents compounds with their documented LD50 values.
Write it as a number; the unit mg/kg goes unstated.

smilesstructure=COc1ccc(C(=O)N[C@@H]2C[C@H]3CC[C@@H](C2)N3Cc2ccccc2)c(OC)c1OC reportedproperty=LD50 recordedvalue=80
smilesstructure=COc1nc(N)ncc1C(=O)N[C@@H]1C[C@H]2CC[C@@H](C1)N2Cc1ccc(C)cc1 reportedproperty=LD50 recordedvalue=325
smilesstructure=COc1cc(NC(C)=O)c(Br)cc1C(=O)N[C@@H]1C[C@H]2CC[C@@H](C1)N2Cc1ccccc1 reportedproperty=LD50 recordedvalue=130

Prompt: Write down LD50 measured for item COc1ccc(F)cc1C(=O)N[C@@H]1C[C@H]2CC[C@@H](C1)N2Cc1ccccc1
Response: 120

Prompt: Write down LD50 measured for item COc1nc(N)ncc1C(=O)N[C@@H]1C[C@H]2CC[C@@H](C1)N2Cc1ccc(Br)cc1
Response: 170

====

test: acute toxicity by intraperitoneal administration; settings: mouse, in vivo, ip; mice, i.p., estimated lethal dose (method of Miller); read-out: Acute toxicity LD 50
reportedProperty: LD50 (mg/kg)
Write it as a number; the unit mg/kg goes unstated.

See these solved cases before continuing.
smilesstructure=COc1nc(N)ncc1C(=O)N[C@@H]1C[C@H]2CC[C@@H](C1)N2Cc1ccc(Cl)cc1 recordedvalue=220
smilesstructure=COc1cc(NC(=O)C(F)(F)F)c(Cl)cc1C(=O)N[C@@H]1C[C@H]2CC[C@@H](C1)N2Cc1ccccc1 recordedvalue=120
smilesstructure=COc1cc(NC(C)=O)c(Cl)cc1C(=O)N[C@@H]1C[C@H]2CC[C@@H](C1)N2Cc1ccccc1 recordedvalue=61
smilesstructure=COc1cc(N)c(Cl)cc1C(=O)N[C@@H]1C[C@H]2CC[C@@H](C1)N2Cc1ccco1 recordedvalue=120
smilesstructure=COc1cccc(C(=O)N[C@@H]2C[C@H]3CC[C@@H](C2)N3Cc2ccccc2)c1OC recordedvalue=83

Prompt: Write down LD50 measured for item CCc1ccc(CN2[C@@H]3CC[C@H]2C[C@H](NC(=O)c2cc(Br)c(N)cc2OC)C3)cc1
Response: 230

====

experiment: acute toxicity by intraperitoneal administration; conditions: mouse, in vivo, ip; mice, i.p., estimated lethal dose (method of Miller); read-out: Acute toxicity LD 50
This section presents compounds with their documented LD50 values.

smilesstructure=CCOc1cc(N)c(Br)cc1C(=O)N[C@@H]1C[C@H]2CC[C@@H](C1)N2Cc1ccccc1 reportedproperty=LD50 recordedvalue="> 400 mg/kg"

Prompt: Write down LD50 measured for item COc1cc(N)c(Br)cc1C(=O)N[C@@H]1C[C@H]2CC[C@@H](C1)N2Cc1ccsc1
Response: 140 mg/kg

Prompt: Write down LD50 measured for item COc1cc(OC)c(C(=O)N[C@@H]2C[C@H]3CC[C@@H](C2)N3Cc2ccccc2)cc1OC
Response: 75 mg/kg

====

This section presents compounds with their documented LD50 values.
assay: acute toxicity by intraperitoneal administration; settings: mouse, in vivo, ip; mice, i.p., estimated lethal dose (method of Miller); read-out: Acute toxicity LD 50
Write it as a number; the unit mg/kg goes unstated.

See these solved cases before continuing.
smilesstructure=COc1cc(N)c(Br)cc1C(=O)N[C@@H]1C[C@H]2CC[C@@H](C1)N2Cc1cccc(F)c1 recordedvalue=140
smilesstructure=COc1ccc(O)cc1C(=O)N[C@@H]1C[C@H]2CC[C@@H](C1)N2Cc1ccccc1 recordedvalue=140
smilesstructure=CCOc1nc(N)ncc1C(=O)N[C@@H]1C[C@H]2CC[C@@H](C1)N2Cc1ccccc1 recordedvalue=300

Prompt: Write down LD50 measured for item COc1cc(N)c(Br)cc1C(=O)N[C@@H]1C[C@H]2CC[C@@H](C1)N2Cc1cccc(Cl)c1
Response: 100

Prompt: Write down LD50 measured for item COc1ccc(C(=O)N[C@@H]2C[C@H]3CC[C@@H](C2)N3Cc2ccccc2)c(OC)c1
Response: 47

Prompt: Write down LD50 measured for item COc1cc(N)ccc1C(=O)N[C@@H]1C[C@H]2CC[C@@H](C1)N2Cc1ccccc1
Response: 100

Prompt: Write down LD50 measured for item COc1cc(OC)cc(C(=O)N[C@@H]2C[C@H]3CC[C@@H](C2)N3Cc2ccccc2)c1
Response: 140

====

test: acute toxicity by intraperitoneal administration; conditions: mouse, in vivo, ip; mice, i.p., estimated lethal dose (method of Miller); read-out: Acute toxicity LD 50
This section presents compounds with their documented LD50 values.
Write it as a number; the unit mg/kg goes unstated.

smilesstructure=COc1cc(N)c(Cl)cc1C(=O)N[C@@H]1C[C@H]2CC[C@@H](C1)N2Cc1ccsc1 recordedvalue=110

Prompt: Write down LD50 measured for item COc1ccc(CN2[C@@H]3CC[C@H]2C[C@H](NC(=O)c2cnc(N)nc2OC)C3)cc1
Response: 240

Prompt: Write down LD50 measured for item COc1cc(N)c(Br)cc1C(=O)N[C@@H]1C[C@H]2CC[C@@H](C1)N2Cc1cccc(C)c1
Response: 160

Prompt: Write down LD50 measured for item COc1cc(N)c(Br)cc1C(=O)N[C@@H]1C[C@H]2CC[C@@H](C1)N2Cc1cccs1
Response: 180

Prompt: Write down LD50 measured for item COc1cc(N)c(Br)cc1C(=O)N[C@@H]1C[C@H]2CC[C@@H](C1)N2CC1CCCCC1
Response: 80

Prompt: Write down LD50 measured for item COc1ccccc1C(=O)N[C@@H]1C[C@H]2CC[C@@H](C1)N2Cc1ccccc1
Response: 60

Prompt: Write down LD50 measured for item COc1ccc([N+](=O)[O-])cc1C(=O)N[C@@H]1C[C@H]2CC[C@@H](C1)N2Cc1ccccc1
Response: 310
